target: Somatostatin receptor type 2 (Homo sapiens, UniProt P30874); experiment: Binding affinity towards human Somatostatin receptor type 2 (sst2) using Tyr11-[125I]-SRIF as radioligand was determined in CHO cells
Sequence (P30874 whole entry): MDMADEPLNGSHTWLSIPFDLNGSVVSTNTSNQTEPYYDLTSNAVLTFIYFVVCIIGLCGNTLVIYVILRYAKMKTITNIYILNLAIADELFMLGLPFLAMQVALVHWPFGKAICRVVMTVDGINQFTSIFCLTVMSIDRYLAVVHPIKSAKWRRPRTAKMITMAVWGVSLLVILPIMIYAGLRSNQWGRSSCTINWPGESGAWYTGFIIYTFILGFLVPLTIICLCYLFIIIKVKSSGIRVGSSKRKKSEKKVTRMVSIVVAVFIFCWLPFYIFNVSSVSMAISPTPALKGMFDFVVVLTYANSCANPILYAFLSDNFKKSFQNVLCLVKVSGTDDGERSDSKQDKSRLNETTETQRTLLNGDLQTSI
Positions of bridges follow the written chain, without caps; N, C: chain ends. Residues, ends and D or L forms follow the SMILES beside them.
Catalogue of molecules with associated pKi
pKi is a log-scale quantity: -log10 of the concentration expressed in molar.

C[C@H](N)C(=O)NCC(=O)N[C@H]1CSSC[C@@H](C(N)=O)NC(=O)[C@H](CO)NC(=O)[C@H]([C@@H](C)O)NC(=O)[C@H](Cc2ccccc2)NC(=O)[C@H]([C@@H](C)O)NC(=O)[C@H](CCCCN)NC(=O)[C@H](C)NC(=O)[C@H](Cc2ccccc2)NC(=O)[C@H](Cc2ccccc2)NC(=O)[C@H](CC(N)=O)NC(=O)[C@H](CCCCN)NC1=O (H-AGCKNFFAKTFTSC-NH2; disulfide 3-14)	6.00

Query molecule follows.
Q) // fetch Somatostatin receptor type 2 (Homo sapiens, UniProt P30874) pKi for C[C@H](N)C(=O)NCC(=O)N[C@H]1CSSC[C@@H](C(N)=O)NC(=O)[C@H](CO)NC(=O)[C@H]([C@@H](C)O)NC(=O)[C@H](Cc2ccccc2)NC(=O)[C@H]([C@@H](C)O)NC(=O)[C@H](CCCCN)NC(=O)[C@H](Cc2c[nH]c3ccccc23)NC(=O)[C@H](Cc2ccccc2)NC(=O)[C@H](Cc2ccccc2)NC(=O)[C@H](CC(N)=O)NC(=O)[C@H](C)NC1=O (H-AGCANFFWKTFTSC-NH2; disulfide 3-14)
A) 9.30

----------
molecular target: Somatostatin receptor type 1 (Homo sapiens); test: Binding affinity towards human Somatostatin receptor type 1 (sst1) using Tyr11-[125I]-SRIF as radioligand was determined in CHO cells
Sequence (P30872 whole entry): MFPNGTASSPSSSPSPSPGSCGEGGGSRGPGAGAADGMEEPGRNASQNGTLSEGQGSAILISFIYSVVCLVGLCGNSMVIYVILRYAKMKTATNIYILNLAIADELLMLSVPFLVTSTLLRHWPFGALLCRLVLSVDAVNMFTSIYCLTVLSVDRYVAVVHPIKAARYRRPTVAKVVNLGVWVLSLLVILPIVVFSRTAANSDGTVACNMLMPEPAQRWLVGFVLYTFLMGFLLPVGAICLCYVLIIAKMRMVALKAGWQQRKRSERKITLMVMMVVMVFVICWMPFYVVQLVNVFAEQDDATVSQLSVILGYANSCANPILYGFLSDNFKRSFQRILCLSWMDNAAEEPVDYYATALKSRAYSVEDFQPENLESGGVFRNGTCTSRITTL
pKi: −log10 of the molar value. Positions of bridges follow the written chain, without caps; N, C: chain ends. Non-standard residues stand in square brackets, D forms with d. Residues, ends and D or L forms follow the SMILES beside them. *: point of attachment. Hyp = O=C(O)[C@@H]1C[C@@H](O)CN1; Bn = c1ccc(C*)cc1
Threshold check on pKi: at or above 8 gives y, strictly below gives n.

C[C@H](N)C(=O)NCC(=O)N[C@H]1CSSC[C@@H](C(N)=O)NC(=O)[C@H](CO)NC(=O)[C@H](C)NC(=O)[C@H](Cc2ccccc2)NC(=O)[C@H]([C@@H](C)O)NC(=O)[C@H](CCCCN)NC(=O)[C@H](Cc2c[nH]c3ccccc23)NC(=O)[C@H](Cc2ccccc2)NC(=O)[C@H](Cc2ccccc2)NC(=O)[C@H](CC(N)=O)NC(=O)[C@H](CCCCN)NC1=O (H-AGCKNFFWKTFASC-NH2; disulfide 3-14)	y
CC(C)[C@@H]1NC(=O)[C@H](CCCCN)NC(=O)[C@@H](Cc2c[nH]c3ccccc23)NC(=O)[C@H](Cc2ccc(O)cc2)NC(=O)[C@H](C)N(C)C(=O)[C@H](Cc2ccccc2)NC1=O [SEGLITIDE]	n
C[C@H](N)C(=O)NCC(=O)N[C@H]1CSSC[C@@H](C(N)=O)NC(=O)[C@H](CO)NC(=O)[C@H]([C@@H](C)O)NC(=O)[C@H](Cc2ccccc2)NC(=O)[C@H]([C@@H](C)O)NC(=O)[C@H](CCCCN)NC(=O)[C@H](Cc2c[nH]c3ccccc23)NC(=O)[C@H](Cc2ccccc2)NC(=O)[C@H](Cc2ccccc2)NC(=O)[C@H](CC(N)=O)NC(=O)[C@H](C)NC1=O (H-AGCANFFWKTFTSC-NH2; disulfide 3-14)	y

Q) Hi, just wondering whether NCCCC[C@@H]1NC(=O)[C@@H](Cc2c[nH]c3ccccc23)NC(=O)[C@H](Cc2ccccc2)NC(=O)[C@@H]2C[C@@H](O)CN2C(=O)[C@H](Cc2ccccc2)NC(=O)[C@H](Cc2ccc(OCc3ccccc3)cc2)NC1=O (cyclo(F[Hyp]F[dW]KY(Bn))) shows pKi of 8 or higher.
A) n

Q) Decide: pKi of C[C@H](N)C(=O)N[C@@H](C)C(=O)N[C@H]1CSSC[C@@H](C(N)=O)NC(=O)[C@H](CO)NC(=O)[C@H]([C@@H](C)O)NC(=O)[C@H](Cc2ccccc2)NC(=O)[C@H]([C@@H](C)O)NC(=O)[C@H](CCCCN)NC(=O)[C@H](Cc2c[nH]c3ccccc23)NC(=O)[C@H](Cc2ccccc2)NC(=O)[C@H](Cc2ccccc2)NC(=O)[C@H](CC(N)=O)NC(=O)[C@H](CCCCN)NC1=O (H-AACKNFFWKTFTSC-NH2; disulfide 3-14) >= 8?
A) y

----------
molecular target: Somatostatin receptor type 4 (Homo sapiens); experiment: Binding affinity towards human Somatostatin receptor type 4 (sst4) using Tyr11-[125I]-SRIF as radioligand was determined in CHO cells
Sequence (P31391 whole entry): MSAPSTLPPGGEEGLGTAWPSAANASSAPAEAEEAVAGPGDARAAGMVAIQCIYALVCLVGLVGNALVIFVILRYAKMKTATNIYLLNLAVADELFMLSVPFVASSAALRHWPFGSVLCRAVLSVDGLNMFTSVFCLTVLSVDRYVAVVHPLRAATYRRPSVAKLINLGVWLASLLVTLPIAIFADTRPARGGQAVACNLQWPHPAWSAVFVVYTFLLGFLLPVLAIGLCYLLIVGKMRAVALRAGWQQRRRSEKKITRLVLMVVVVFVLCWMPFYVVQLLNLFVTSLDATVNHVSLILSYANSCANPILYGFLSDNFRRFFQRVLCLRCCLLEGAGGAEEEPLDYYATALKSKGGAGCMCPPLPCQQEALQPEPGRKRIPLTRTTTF
Starred links: 1 amine or outer side, 2 acyl side, 3 side chain; linkers in the order of their positions; H or OH if unused. Positions of bridges follow the written chain, without caps; N, C: chain ends. Non-standard residues stand in square brackets, D forms with d. Residues, ends and D or L forms follow the SMILES beside them. Groups on a side chain read outwards from the residue. *: point of attachment. Ethylenediamine = C(CN[*:2])N[*:1]; Hyp = O=C(O)[C@@H]1C[C@@H](O)CN1; CO = O=C([*:1])[*:2]; Bn = c1ccc(C*)cc1
Experimental readout: pKi
Entry type: numeric. Quantity: pKi, the -log10 of concentration in molar units.

CC(C)[C@@H]1NC(=O)[C@H](CCCCN)NC(=O)[C@@H](Cc2c[nH]c3ccccc23)NC(=O)[C@H](Cc2ccc(O)cc2)NC(=O)[C@@H](NC(=O)[C@H](N)Cc2ccccc2)CSSC[C@@H](C(=O)N[C@@H](Cc2c[nH]c3ccccc23)C(N)=O)NC1=O [VAPREOTIDE] (H-[dF]CY[dW]KVCW-NH2; disulfide 2-7)	6.80

Q) Would you kindly share the measured pKi for NCCCC[C@@H]1NC(=O)[C@@H](Cc2c[nH]c3ccccc23)NC(=O)[C@H](Cc2ccccc2)NC(=O)[C@@H]2C[C@@H](OC(=O)NCCN)CN2C(=O)[C@H](Cc2ccccc2)NC(=O)[C@H](Cc2ccc(OCc3ccccc3)cc2)NC1=O (cyclo(F[Hyp]([CO-Ethylenediamine])F[dW]KY(Bn))) ?
A) 6.30

----------
target: UniProt P30874; experiment: Binding affinity towards human Somatostatin receptor type 2 (sst2) using Tyr11-[125I]-SRIF as radioligand was determined in CHO cells
Starred links: 1 amine or outer side, 2 acyl side, 3 side chain; linkers in the order of their positions; H or OH if unused. Positions of bridges follow the written chain, without caps; N, C: chain ends. Non-standard residues stand in square brackets, D forms with d. Residues, ends and D or L forms follow the SMILES beside them. Groups on a side chain read outwards from the residue. *: point of attachment. Ethylenediamine = C(CN[*:2])N[*:1]; Hyp = O=C(O)[C@@H]1C[C@@H](O)CN1; Phg = N[C@H](C(=O)O)c1ccccc1; CO = O=C([*:1])[*:2]; Bn = c1ccc(C*)cc1
Experimental readout: pKi
Would you please state pKi, meaning minus log10 of the concentration in mol/L, as a bare number?

C[C@H](N)C(=O)N[C@@H](C)C(=O)N[C@H]1CSSC[C@@H](C(N)=O)NC(=O)[C@H](CO)NC(=O)[C@H]([C@@H](C)O)NC(=O)[C@H](Cc2ccccc2)NC(=O)[C@H]([C@@H](C)O)NC(=O)[C@H](CCCCN)NC(=O)[C@H](Cc2c[nH]c3ccccc23)NC(=O)[C@H](Cc2ccccc2)NC(=O)[C@H](Cc2ccccc2)NC(=O)[C@H](CC(N)=O)NC(=O)[C@H](CCCCN)NC1=O (H-AACKNFFWKTFTSC-NH2; disulfide 3-14)	9.80
C[C@H](N)C(=O)NCC(=O)N[C@H]1CSSC[C@@H](C(N)=O)NC(=O)[C@H](CO)NC(=O)[C@H]([C@@H](C)O)NC(=O)[C@H](Cc2ccccc2)NC(=O)[C@H](C)NC(=O)[C@H](CCCCN)NC(=O)[C@H](Cc2c[nH]c3ccccc23)NC(=O)[C@H](Cc2ccccc2)NC(=O)[C@H](Cc2ccccc2)NC(=O)[C@H](CC(N)=O)NC(=O)[C@H](CCCCN)NC1=O (H-AGCKNFFWKAFTSC-NH2; disulfide 3-14)	9.00

Q) Look at this compound and give its reported pKi. NCCCC[C@@H]1NC(=O)[C@@H](Cc2c[nH]c3ccccc23)NC(=O)[C@H](c2ccccc2)NC(=O)[C@@H]2C[C@@H](OC(=O)NCCN)CN2C(=O)[C@H](Cc2ccccc2)NC(=O)[C@H](Cc2ccc(OCc3ccccc3)cc2)NC1=O [PASIREOTIDE] (cyclo(F[Hyp]([CO-Ethylenediamine])[Phg][dW]KY(Bn)))
A) 9.00

----------
molecular target: Somatostatin receptor type 2 (Homo sapiens); assay: Binding affinity towards human Somatostatin receptor type 2 (sst2) using Tyr11-[125I]-SRIF as radioligand was determined in CHO cells
Positions of bridges follow the written chain, without caps; N, C: chain ends. Non-standard residues stand in square brackets, D forms with d. Residues, ends and D or L forms follow the SMILES beside them. Hyp = O=C(O)[C@@H]1C[C@@H](O)CN1
Experimental readout: pKi
The value called pKi is obtained by taking minus log10 of the concentration in mol/L.

Below: 3 compounds and their reported pKi.
CN(C)CCNC(=O)O[C@@H]1C[C@H]2C(=O)N[C@@H](Cc3ccccc3)C(=O)N[C@H](Cc3c[nH]c4ccccc34)C(=O)N[C@@H](CCCCN)C(=O)N[C@@H](Cc3ccc(OCc4ccccc4)cc3)C(=O)N[C@@H](Cc3ccccc3)C(=O)N2C1	9.30
NCCCC[C@@H]1NC(=O)[C@@H](Cc2c[nH]c3ccccc23)NC(=O)[C@H](Cc2ccc(O)cc2)NC(=O)[C@@H]2C[C@@H](OC(=O)NCCN)CN2C(=O)[C@H](Cc2ccccc2)NC(=O)[C@H](Cc2ccc(OCc3ccccc3)cc2)NC1=O	9.10
C[C@@H](O)[C@@H]1NC(=O)[C@H](CCCCN)NC(=O)[C@@H](Cc2c[nH]c3ccccc23)NC(=O)[C@H](Cc2ccccc2)NC(=O)[C@@H]2C[C@@H](O)CN2C(=O)[C@H](Cc2ccccc2)NC1=O (cyclo(F[Hyp]F[dW]KT))	9.70

Q) State its pKi on Somatostatin receptor type 2 (Homo sapiens): C[C@H](N)C(=O)NCC(=O)N[C@H]1CSSC[C@@H](C(N)=O)NC(=O)[C@H](C)NC(=O)[C@H]([C@@H](C)O)NC(=O)[C@H](Cc2ccccc2)NC(=O)[C@H]([C@@H](C)O)NC(=O)[C@H](CCCCN)NC(=O)[C@H](Cc2c[nH]c3ccccc23)NC(=O)[C@H](Cc2ccccc2)NC(=O)[C@H](Cc2ccccc2)NC(=O)[C@H](CC(N)=O)NC(=O)[C@H](CCCCN)NC1=O (H-AGCKNFFWKTFTAC-NH2; disulfide 3-14)
A) 10.10
